test system: PTGER4 (EP4) (Homo sapiens, UniProt P35408)
Sequence (P35408 whole entry): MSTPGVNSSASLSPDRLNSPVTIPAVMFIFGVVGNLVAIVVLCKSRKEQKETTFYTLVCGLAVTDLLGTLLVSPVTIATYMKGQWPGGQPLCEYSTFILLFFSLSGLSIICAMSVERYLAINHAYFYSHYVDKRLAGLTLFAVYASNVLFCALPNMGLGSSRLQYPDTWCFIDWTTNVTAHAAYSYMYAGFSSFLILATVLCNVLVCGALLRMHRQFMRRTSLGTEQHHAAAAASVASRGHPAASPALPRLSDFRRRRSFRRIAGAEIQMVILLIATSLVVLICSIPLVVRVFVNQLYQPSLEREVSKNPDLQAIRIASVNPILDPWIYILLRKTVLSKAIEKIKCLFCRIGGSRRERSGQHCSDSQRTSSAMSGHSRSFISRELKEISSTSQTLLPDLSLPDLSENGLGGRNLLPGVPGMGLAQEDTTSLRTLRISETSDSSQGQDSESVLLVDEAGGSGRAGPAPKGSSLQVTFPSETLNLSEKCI
procedure details: hEP4 b-arrestin assay (PathHunter HEK 293 PTGER4 b-arrestin cells)
condition notes: antagonistic activity, beta-arrestin assay; read-out: hEP4 b-arr IC50
The reader will find reported IC50 values listed item by item below.
property name: IC50 (nM)

{"columns": ["mol smiles", "experimental result"],
 "data": [
  ["CCOc1cc(-c2cc(NCCc3c(C)sc4c(C)cc(F)cc34)ncn2)ccc1C(=O)NC", 667],
  ["CCSc1cc(-c2cc(NCCc3c(C)oc4ccccc34)ncn2)ccc1C(=O)O", 1020],
  ["COc1ccc(F)c2c(CCNc3cc(-c4ccc(C(=O)O)c(OC5CCC5)c4)ncn3)c(C)sc12", 893],
  ["CCc1cc(-c2cc(NCCc3c(C)sc4c(C)cc(F)cc34)ncn2)ccc1CC(=O)O", 134],
  ["CSc1cc(-c2cc(NCCc3c(C)sc4c(Cl)cc(F)cc34)ncn2)ccc1C(=O)O", 488],
  ["CCCc1cc(-c2cc(NCCc3c(C)sc4c(C)cc(F)cc34)ncn2)ccc1C(=O)NCCO", 280],
  ["Cc1sc2c(C)cc(F)cc2c1CCNc1cc(-c2cnn(C(C)(C)C(=O)O)c2)ncn1", 388],
  ["COc1cc(Cl)cc2c(CCNc3cc(-c4cc(C)c(C(=O)O)s4)ncn3)c(C)oc12", 142],
  ["COc1ccc(Cl)c2c(CCNc3cc(-c4ccc(C(=O)O)c(OC(C)C)c4)ncn3)c(C)sc12", 340],
  ["CCCc1cc(-c2cc(NCCc3c(C)sc4c(C)cc(F)cc34)ncn2)ccc1C(N)=O", 288],
  ["CCCOc1cc(-c2cc(NCCc3c(C)sc4c(OC)ccc(Cl)c34)ncn2)ccc1C(=O)O", 505],
  ["Cc1sc2c(C)cc(F)cc2c1CCNc1cc(-c2ccc(CC(=O)O)c(OC(C)C)c2)ncn1", 261],
  ["CSc1cc(-c2cc(NCCc3c(C)sc4ccccc34)ncn2)ccc1C(=O)O", 3420],
  ["CCOc1cc(-c2cc(NCCc3c(C)sc4c(C)cc(F)cc34)ncn2)ccc1C(=O)C(=O)O", 92],
  ["CCc1nc(-c2cc(NCCc3c(C)sc4c(C)cc(F)cc34)ncn2)sc1C(=O)O", 256],
  ["CSc1cc(-c2cc(NCCc3c(C)sc4c(C)cccc34)ncn2)cc(F)c1C(=O)O", 807],
  ["O=C(O)c1ccc(-c2cc(NCCc3csc4ccccc34)ncn2)cc1OC1CCC1", 561],
  ["CSc1cc(-c2cc(NCCc3c(C)oc4ccccc34)ncn2)cc(Cl)c1C(=O)O", 3490],
  ["CCCOc1cc(-c2cc(NCCc3c(C)sc4c(C)cc(F)cc34)ncn2)ccc1CC(=O)O", 200],
  ["CSc1cc(-c2cc(NCCc3c(C)sc4ccccc34)ncn2)cc(F)c1C(=O)O", 3380],
  ["CCOc1cc(-c2cc(NCCc3c(C)sc4c(C)cc(F)cc34)ncn2)c(F)cc1CC(=O)O", 847],
  ["COc1cccc2c(CCNc3cc(-c4ccc(C(=O)O)c(SC)c4)ncn3)c(C#N)sc12", 114],
  ["CCSc1cc(-c2cc(NCCc3c(C)sc4c(C)cccc34)ncn2)ccc1C(=O)O", 328],
  ["Cc1sc2c(C)cc(F)cc2c1CCNc1cc(-c2ccc(CC(=O)O)c(OC(F)(F)F)c2)ncn1", 425],
  ["CCOc1cc(-c2cc(NCCc3c(C)sc4c(C)cc(F)cc34)ncn2)ccc1C(=O)NCCO", 367],
  ["CCSc1cc(-c2cc(NCCc3c(C)sc4c(C)cc(F)cc34)ncn2)ccc1C(=O)O", 184],
  ["Cc1cc(-c2cc(NCCc3c(C)oc4c(C)cc(Cl)cc34)ncn2)sc1C(=O)O", 262],
  ["Cc1sc2c(C)cc(F)cc2c1CCNc1cc(-c2ccc(C(=O)O)c(OC(F)F)c2)ncn1", 208],
  ["Cc1cc(F)cc2c(CCNc3cc(-c4ccc(C(=O)O)c(OC(C)C)c4)ncn3)c(C#N)sc12", 166],
  ["CCOc1cc(-c2cc(NCCc3c(C)sc4c(C)ccc(F)c34)ncn2)sc1C(=O)O", 7],
  ["CCOc1cc(-c2cc(NCCc3c(C)oc4c(Cl)cccc34)ncn2)sc1C(=O)O", 35],
  ["CCCOc1cc(-c2cc(NCCc3c(C)sc4c(C)cc(F)cc34)ncn2)ccc1C(=O)O", 299]
]}
